The compounds listed here are annotated with their EC50.
# subjectOfTest: Human coagulation factor (F)XI (Homo sapiens)
# Construct: Enzyme Research Laboratories (FXIIa) HCXI-150 (FXI); HFXIIa (FXIIa)
# Sequence (P03951 19-625): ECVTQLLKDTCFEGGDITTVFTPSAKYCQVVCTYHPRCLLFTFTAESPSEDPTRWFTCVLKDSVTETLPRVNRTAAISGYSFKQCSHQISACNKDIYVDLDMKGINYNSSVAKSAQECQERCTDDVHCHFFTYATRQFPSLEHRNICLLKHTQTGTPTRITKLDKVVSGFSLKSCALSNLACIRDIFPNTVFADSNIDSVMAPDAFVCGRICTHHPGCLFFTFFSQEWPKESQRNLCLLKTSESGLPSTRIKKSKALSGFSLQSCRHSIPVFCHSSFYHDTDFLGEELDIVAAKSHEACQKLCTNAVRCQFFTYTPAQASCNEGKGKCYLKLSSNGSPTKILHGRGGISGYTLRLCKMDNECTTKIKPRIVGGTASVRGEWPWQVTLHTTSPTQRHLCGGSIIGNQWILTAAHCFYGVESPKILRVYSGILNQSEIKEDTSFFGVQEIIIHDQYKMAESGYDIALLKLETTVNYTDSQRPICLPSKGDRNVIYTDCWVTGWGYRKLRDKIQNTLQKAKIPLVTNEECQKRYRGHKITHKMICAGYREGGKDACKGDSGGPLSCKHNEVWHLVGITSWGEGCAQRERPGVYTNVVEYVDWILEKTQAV
# experimentalProtocol: Inhibition of FXIIa mediated activation of FXI (activation of human Factor XI to XIa by human Factor α-XIIa)
# experimentalConditions: human FXI pre-incubated with compound 30 min at 22° C., activation by human FXIIa 60 min, z-GPR-AFC substrate, fluorescence 405/510 nm, 4 parameter logistic fit; read-out: Inhibition of FXIIa meditated activation of FXI
Value expressed in µM; do not type the unit.

Solved entries:
Cc1cnc(C(=O)N2CCC(C#N)(c3ccccc3)CC2)cc1C(=O)N1CCC2c3cc(F)ccc3OC2C1 (stereo not shown) :: 0.0451
Cc1cnc(C(=O)N2CCC(C#N)(c3ccccc3)CC2)cc1C(=O)N1CC2CC(C1)C2c1ccccc1 (stereo not shown) :: 0.0667
N#CC1(c2ccccc2)CCN(C(=O)c2cc(C(=O)N3CCC(N4CCC(F)(F)C4)CC3)c(C(F)(F)F)cn2)CC1 [Example 18, 2,2,2-trifluoroacetate] :: 0.04

Read the next record carefully.
-- ask For the record Cc1cnc(C(=O)N2CCC(C#N)(c3ccccc3)CC2)cc1C(=O)N1CC2CC(C1)C2(F)c1ccccc1 (stereo not shown) , what value of EC50 is listed for Human coagulation factor (F)XI (Homo sapiens)?
-- reply 0.137
